# System: HIV-1 IIIB
# applied conditions: read-out: EC50 (μM) (M ± SD) for inhibition of p24; HIV-1 IIIB, MT-2 cells
# Description: Assessment of anti-HIV-1 infectivity. The inhibitory activity of compounds on infection by laboratory-adapted HIV-1 strains was determined as previously described (34). […] For the time-of-addition assay, compounds were added at various time post-infection. […] On the fourth day post-infection, 100 μl of culture supernatants were collected from each well, mixed with equal volumes of 5% Triton X-100 and assayed for p24 antigen, which was quantitated by ELISA (23). […]
measure: EC50 (µM)
Give the value, in units of µM, as a plain number.

Q. For the molecule COc1ccc(CN2C(=O)/C(=C/c3ccc(-c4ccc(Cl)c(C(=O)O)c4)o3)SC2=S)cc1 , give its reported EC50.
A. 1.13

Q. For the molecule O=C(O)c1cccc(-c2ccc(/C=C3\SC(=S)N(c4ccc(Cl)cc4Cl)C3=O)o2)c1 , give its reported EC50.
A. 0.189

Q. For the molecule O=C(O)c1cc(-c2ccc(/C=C3\SC(=S)N(c4ccc(Cl)cc4)C3=O)o2)ccc1Cl , give its reported EC50.
A. 0.514

Q. For the molecule C=CCN1C(=O)/C(=C/c2ccc(-c3cccc(C(=O)O)c3)o2)SC1=S , give its reported EC50.
A. 0.323

====

# System: HIV-1 IIIB
Attribute: SI (CC50/EC50)

Worked set:
> print(dat)
                              smiles.record         measure   result
1  C=CCN1C(=O)/C(=C/c2ccc(-c3cccc(C(=O)O)c3)o2)SC1=S  SI (CC50/EC50)   537.83
2  COCCN1C(=O)/C(=C/c2ccc(-c3ccc(Cl)c(C(=O)O)c3)o2)SC1=S  SI (CC50/EC50)    11.08
3  COc1ccccc1N1C(=O)/C(=C/c2ccc(-c3cccc(C(=O)O)c3)o2)SC1=S  SI (CC50/EC50)  >266.67
4  CCN1C(=O)/C(=C/c2ccc(-c3ccc(Cl)c(C(=O)O)c3)o2)SC1=S  SI (CC50/EC50)     47.5

Q. Identify measured SI (CC50/EC50) obtained with HIV-1 IIIB for O=C1NC(=S)S/C1=C\c1ccc(-c2ccc(Cl)c(C(=O)O)c2)o1 .
A. >5.68

Q. Identify measured SI (CC50/EC50) obtained with HIV-1 IIIB for CN1C(=O)/C(=C/c2ccc(-c3cccc(C(=O)O)c3)o2)SC1=S .
A. 187.17

Q. Identify measured SI (CC50/EC50) obtained with HIV-1 IIIB for COc1ccc(CN2C(=O)/C(=C/c3ccc(-c4ccc(Cl)c(C(=O)O)c4)o3)SC2=S)cc1 .
A. 82.24

Q. Identify measured SI (CC50/EC50) obtained with HIV-1 IIIB for O=C1NC(=S)S/C1=C\c1ccc(-c2cccc(C(=O)O)c2)o1 .
A. >28.93

Q. Identify measured SI (CC50/EC50) obtained with HIV-1 IIIB for C=CCN1C(=O)/C(=C/c2ccc(-c3cccc(C(=O)O)c3C)o2)SC1=S .
A. >421.05

Q. Identify measured SI (CC50/EC50) obtained with HIV-1 IIIB for O=C(O)c1cccc(-c2ccc(/C=C3\SC(=S)N(Cc4ccco4)C3=O)o2)c1 .
A. >14.57
